This collection of values is drawn from paper PMC4118376.

Form field: kon (one value per entry).
target_under_test: staphylococcal enterotoxin B (Staphylococcus aureus (strain not …, UniProt P01552))
Sequence (P01552 28-266): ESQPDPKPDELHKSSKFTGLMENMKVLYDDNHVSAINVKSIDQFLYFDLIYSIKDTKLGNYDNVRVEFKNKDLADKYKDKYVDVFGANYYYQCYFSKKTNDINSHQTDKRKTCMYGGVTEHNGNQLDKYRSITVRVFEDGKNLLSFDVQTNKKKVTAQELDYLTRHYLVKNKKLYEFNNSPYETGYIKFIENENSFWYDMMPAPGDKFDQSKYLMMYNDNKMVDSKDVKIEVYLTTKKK
test_summary: SPR
assay_setup: both partners purified
State the answer as a number, implicitly in M⁻¹ s⁻¹.

Please review the following examples before continuing.
sdAb F1 (VHH, source: E. coli Rosetta (DE3), periplasm, purified (IMAC, size exclusion chromatography)) VHH: DVQLQASGGGLVQAGGSLRLTCAASLHTFGSYAMGWFRQAPGKEREFVAAISWSGGDTYSDSVKGRFTISRDNAKNTVYLQMNSLEPEDTAVYSCAAVEARYYISTDAKDYGYWGQGTQVTVSS : 646000
sdAb E9 (VHH, source: E. coli Rosetta (DE3), periplasm, purified (IMAC, size exclusion chromatography)) VHH: EVQLQASGGGLVQAGGSLRLSCAASGRDFSDYAMAWFRQAPGKEREFVGTISWYTNTNYADSVKGRFSISRDNAKNTVYLQMSSLKPEDTAVYYCAAAPARYYNPYKRESEYGYWGQGTQVTVSS : 1.11e+06
sdAb H12 (VHH, source: E. coli Rosetta (DE3), periplasm, purified (IMAC, size exclusion chromatography)) VHH: EVQLQASGGGLVLTGGSLRLSCAASGRNFSNYAMAWFRQAPGKEREFVGTISWYTNTNYANSVKGRFSISRDNAKNTVYLQMSSLKPEDTAVYYCAAAPAMYYNPYTRESEYGYWGQGTQVTVSS : 2.23e+06

Here is the next item to consider.
Field request: kon | item: sdAb H9-D7 (VHH, source: E. coli Rosetta (DE3), periplasm, purified (IMAC, size exclusion chromatography)) VHH: DVQLQASGGGLVQVGGSLRLSCAASGSTFRIGYMSWHRQAPGKSRELVARISSGGTTDYLDSVKDRFTISRDNTKNTVYLQMNSLEPEDTAVYYCNVVDYRANEYWGQGTQVAVSS
174000
